Biological target: T1, TR7 (human, UniProt O14763 52-184)
T1 construct: The construct coated in the specificity phage ELISA is not described; also called TRAIL-R2; DR5
T1 sequence (O14763 52-184 limits assumed): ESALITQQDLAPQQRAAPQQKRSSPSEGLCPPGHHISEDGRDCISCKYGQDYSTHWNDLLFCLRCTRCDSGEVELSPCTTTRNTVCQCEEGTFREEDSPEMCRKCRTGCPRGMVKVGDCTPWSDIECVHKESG
Assay: specificity phage ELISA, antigen coated at 1 ug/ml, anti-M13-HRP detection
Method: Flexible 96-well plates (Falcon) were coated overnight at 4° C. with each antigen (1 μg/ml). All antigens were coated in PBS. After coating, the solutions were removed from the wells, and the plates were blocked for 1 hour at room temperature in MPBS. The plates were washed 3 times with PBS and then 50 μl of pre-blocked phage was added to each well. The plates were incubated at room temperature for 1 hour and then washed with 3 changes of PBST followed by 3 changes of PBS. […]

| Binder | binding result |
| --- | --- |
| scFv T1014B11 (scFv) scFv: EVQLVQSGAEVKKPGASVKVSCKISGDSFTAYFIHWLRQAPGEGLEWMGWFNPISGTAGSPQKFHGRVAMTRDTSISTAYMELTRLASDDTAIYYCARQHHSNTFDPWGQGTLVTVSSGGGGSGGGGSGGGGSAQSALTQPASVSGSPGQSITISCTGTNSDVGGYNYVSWYQQHPGKAPKLMIYEVNNRPSGVSNRFSGSKSGNTASLTISGLQADDEADYYCSSYTTSNTWVFGGGTKLTVLG | no binding |
| scFv T1014A04 (scFv) scFv: EVQLVQSGADVKRPGASVKVSCKISGDSFNAYFIHWVRQAPGQGLEWMGWFNPDSGTADSAQKFHGRVTMTRDTSSSTAFLELSRLRSDDTAVYYCVRQHRGNTFAPWGRGTMVTVSSGGGGSGGGGSGGGGSAQSVLTQPPSASGSPGQSVTISCTGTTSDVGGYNYVSWYQQHPGKAPKLMIYGVNQRPSGVPDRFSGSKSGNTASLTVSGLQAEDEADYYCSSYAGSNNWVFGGGTKLTVLG | no binding |
